Reported phosphorylation enrichment values follow for various sequences
- TARGET ENTITY: FGFR3 (UniProt P22607)
- Sequence (P22607 whole entry, looked up): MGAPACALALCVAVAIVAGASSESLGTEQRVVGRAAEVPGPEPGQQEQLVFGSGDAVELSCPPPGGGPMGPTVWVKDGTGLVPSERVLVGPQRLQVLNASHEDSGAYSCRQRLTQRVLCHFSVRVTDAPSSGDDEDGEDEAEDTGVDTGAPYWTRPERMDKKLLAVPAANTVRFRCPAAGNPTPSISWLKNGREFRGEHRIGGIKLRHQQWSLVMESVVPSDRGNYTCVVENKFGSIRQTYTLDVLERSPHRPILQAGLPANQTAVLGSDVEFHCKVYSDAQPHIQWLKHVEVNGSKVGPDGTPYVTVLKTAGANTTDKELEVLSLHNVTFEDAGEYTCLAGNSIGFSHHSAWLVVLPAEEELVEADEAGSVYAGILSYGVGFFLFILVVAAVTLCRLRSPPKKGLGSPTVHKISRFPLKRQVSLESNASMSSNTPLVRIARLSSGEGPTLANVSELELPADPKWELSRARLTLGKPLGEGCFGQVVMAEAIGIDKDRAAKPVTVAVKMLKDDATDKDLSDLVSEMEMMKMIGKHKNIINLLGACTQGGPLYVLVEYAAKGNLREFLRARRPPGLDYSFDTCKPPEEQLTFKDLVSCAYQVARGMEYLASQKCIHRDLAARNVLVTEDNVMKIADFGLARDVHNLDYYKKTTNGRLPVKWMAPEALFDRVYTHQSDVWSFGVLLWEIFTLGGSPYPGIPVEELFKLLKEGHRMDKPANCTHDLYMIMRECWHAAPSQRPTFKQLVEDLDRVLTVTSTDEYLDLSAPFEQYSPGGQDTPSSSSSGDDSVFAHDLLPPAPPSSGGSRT
- METHOD: phosphorylation enrichment, bacterial display (enrichment ratio); higher = better substrate or ligand; peptides without Tyr show the background;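 also: 11-residue human phosphosite peptides and single-mutation variants displayed on the E. coli surface, counted by deep sequencing, each peptide's frequency after selection divided by its frequency in the unselected input library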;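 also: frequency after pTyr selection over input frequency; kinase dosed for 20-30% of maximal phosphorylation in three min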
MEASUREMENT TYPE: phosphorylation enrichment

1. FMKEPYIQSRF [HIPK4_Y175_V171M_YF] = 0.449
2. TDEYEYDELIV [TGM1_Y136] = 0.805
3. SVTCTYSPGLN [TP53_Y126_A129G] = 0.998
4. DDYDLYGGEKF [PTPN11_Y66_Y62D] = 0.681
5. QITQVCGFFDE [PPP2CA_Y127_Y127C_YF] = 1.24
6. FDKPVYQKTTE [LDLR_Y828_N825K] = 0.57
7. VPLLEYYWDIF [CDAN1_Y712_R714W] = 6.87
8. MQMEEYRGWVE [BTNL2_Y91] = 0.599
9. IYETDYYRKGG [INSR_Y1189] = 0.771
10. WFQTKYEELQI [KRT6B_Y360_YF] = 0.633
11. IGDENYGEGSS [ACO2_Y665] = 0.738
12. KQELVYPNKKL [OPTN_Y356_T357P] = 0.417
13. FRRITYFNWRH [PDE6B_Y556_H557Y_YF] = 0.476
14. DNEFAYLKAII [HNF4A_Y288_YF] = 0.648
